System Tested: Gal3S(b1-4)GlcNAc
Assay Text: glycan array binding signal (z-score within array); higher = stronger binding
Measurement Setup: glycan notation: IUPAC condensed, linker removed
The full list was thinned out, with the strongest signals kept by preference.
Metric: glycan array binding signal (z-score)
Form rule: numeric answer, no unit written next to it.

{"columns": ["Binder", "glycan array binding signal (z-score)"],
 "data": [
  ["OGAN (protein) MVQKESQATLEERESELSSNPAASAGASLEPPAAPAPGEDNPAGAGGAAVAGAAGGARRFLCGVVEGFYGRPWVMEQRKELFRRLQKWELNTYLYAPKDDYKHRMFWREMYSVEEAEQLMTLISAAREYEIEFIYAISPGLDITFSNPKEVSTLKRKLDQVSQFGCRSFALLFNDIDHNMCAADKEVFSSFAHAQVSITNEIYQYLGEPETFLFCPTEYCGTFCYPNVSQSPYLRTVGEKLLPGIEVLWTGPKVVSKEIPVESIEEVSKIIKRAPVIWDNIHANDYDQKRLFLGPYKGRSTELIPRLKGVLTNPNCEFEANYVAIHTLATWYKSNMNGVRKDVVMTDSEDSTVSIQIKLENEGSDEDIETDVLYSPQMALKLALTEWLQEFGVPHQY", -0.067],
  ["Gal 4 (Homo sapiens), Q8K419 (protein) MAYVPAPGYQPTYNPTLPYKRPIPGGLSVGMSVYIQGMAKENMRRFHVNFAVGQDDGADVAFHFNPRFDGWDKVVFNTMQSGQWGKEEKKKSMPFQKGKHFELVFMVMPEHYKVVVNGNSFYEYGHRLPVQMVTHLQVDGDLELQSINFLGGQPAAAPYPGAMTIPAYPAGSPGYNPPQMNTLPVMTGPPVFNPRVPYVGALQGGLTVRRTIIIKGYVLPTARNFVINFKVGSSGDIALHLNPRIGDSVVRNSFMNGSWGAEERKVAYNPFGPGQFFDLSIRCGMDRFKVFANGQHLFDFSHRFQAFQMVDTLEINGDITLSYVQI", -0.136],
  ["CCL1 (Coprinopsis cinerea) (protein) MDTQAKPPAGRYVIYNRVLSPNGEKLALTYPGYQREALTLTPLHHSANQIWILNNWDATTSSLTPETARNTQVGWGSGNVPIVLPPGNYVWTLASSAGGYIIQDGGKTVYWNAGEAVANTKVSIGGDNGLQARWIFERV", -0.123],
  ["MXA PilAct-eGFP (Myxococcus xanthus), Q59589 (protein) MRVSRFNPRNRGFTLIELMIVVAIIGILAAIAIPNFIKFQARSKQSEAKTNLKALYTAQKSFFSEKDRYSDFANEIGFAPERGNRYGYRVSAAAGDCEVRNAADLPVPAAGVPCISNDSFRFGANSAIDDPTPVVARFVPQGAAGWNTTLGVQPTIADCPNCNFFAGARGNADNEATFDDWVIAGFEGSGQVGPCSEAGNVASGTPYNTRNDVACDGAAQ", -0.174]
]}

Next binder, please.
Query: Determine its reported glycan array binding signal (z-score): MAA (Maackia amurensis), P0DKL3 (protein) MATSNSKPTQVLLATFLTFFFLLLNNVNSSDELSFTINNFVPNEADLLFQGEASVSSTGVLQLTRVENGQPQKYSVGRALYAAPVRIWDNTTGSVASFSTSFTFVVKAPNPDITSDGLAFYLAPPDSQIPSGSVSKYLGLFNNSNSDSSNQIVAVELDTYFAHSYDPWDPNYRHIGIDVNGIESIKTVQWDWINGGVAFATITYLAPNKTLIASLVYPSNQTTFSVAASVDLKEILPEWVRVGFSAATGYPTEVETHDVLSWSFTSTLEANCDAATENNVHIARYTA
Reply: 6.25
